# experiment: Single-dose, 2-sequence, 2-period crossover pharmacokinetic/bioequivalence study, fasting oral administration, healthy Chinese subjects (also by CYP2C19 phenotype and gender)
# Format: in vivo
# condition.notes: human, plasma, CYP2C19 PM (N = 4), mean ± SD
attribute.measured: half-life (min)

molecule="COc1ccc2[nH]c([S+]([O-])Cc3ncc(C)c(OC)c3C)nc2c1 (stereo not shown) [omeprazole]" attribute_measured=half-life measure_unit=min meas_value=149

---

# experiment: Single-dose, 2-sequence, 2-period crossover pharmacokinetic/bioequivalence study, fasting oral administration, healthy Chinese subjects (also by CYP2C19 phenotype and gender)
# Format: in vivo
# condition.notes: human, plasma, CYP2C19 EM (N = 12), mean ± SD
attribute.measured: AUC(0-t) (ng·h/mL)

molecule="COc1ccc2[nH]c([S+]([O-])Cc3ncc(C)c(OC)c3C)nc2c1 (stereo not shown) [omeprazole]" measure_unit=ng·h/mL meas_value=553

Data origin: paper PMC9859815
